Test system: OVCAR-8 ovarian
ASSAY_COMMENT: NCI tumour cell line growth inhibition, 48 h
What TGI was measured for each of the following?

Look up TGI: O=C(O)c1c2c(cc3c(=O)c4ccccc4[nH]c13)CCCC2
> 100 µM

Look up TGI: COc1cccc(NC(=O)CC(=O)n2nc(-c3ccccc3)c(N=Nc3ccc(Cl)cc3)c2-c2ccccc2)c1
68.3 µM

Look up TGI: Cn1c2ccccc2n2c3ncccc3c(=O)cc12
> 100 µM

Look up TGI: Oc1cccc2c(Br)ccnc12
> 36.2 µM

Look up TGI: CC(C)C[C@H](NC(=O)Cn1cccc(CNC(=O)c2ccccc2)c1=O)B(O)O
> 85.7 µM

Look up TGI: FC(F)c1ncc(-c2ccc(C(F)(F)F)cc2)c(NC2CCCCCC2)n1
> 10 µM

Look up TGI: CCCCC#Cc1c(I)n(C2OC(CO[Si](C)(C)C(C)(C)C)C3OC(C)(C)OC32)c(=O)n(C(=O)c2ccccc2)c1=O (configuration not stated)
18.6 µM

Look up TGI: COc1ccc2nc(C)cc(Sc3nc4ccccc4s3)c2c1
10.9 µM

Look up TGI: CN1CCN(CCCOc2ccc3nc(Nc4ccc(F)c(F)c4)ccc3c2)CC1
12.5 µM

Look up TGI: O=C1c2ccccc2C2(c3ccc(F)cc3)NCCN12 (configuration not stated)
> 100 µM

Look up TGI: Cc1nc(NS(=O)(=O)c2ccc(NCN3C(=O)c4ccccc4C3=O)cc2)oc1C
> 100 µM

Look up TGI: COc1ccc2c(c1O)[C@@]13CCCC=C1[C@@H](C2)[N+](C)(C)CC3
> 100 µM

Look up TGI: CC(=O)c1c[nH]c2ccc(-c3ccnc(Nc4ccc(NC(=O)C5CCCC5)c(CN5CCOCC5)c4)n3)cc12
> 100 µM

Look up TGI: COC(=O)CC1(O)C=CC(=O)C=C1
17.3 µM

Look up TGI: Cc1cc(=O)[nH]c(NNC(C#N)c2ccccc2O)n1 (configuration not stated)
> 100 µM

Look up TGI: Cc1cc(S(=O)(=O)Nc2nc3cscc3c(=O)n2N)c(S)cc1Cl
> 100 µM

Look up TGI: N#CC1=C(N)NC(N2CCOCC2)=NC12Nc1ccccc1O2 (configuration not stated)
> 100 µM

Look up TGI: Cc1cc(C)c2c(c1)C/C(=C\c1cccc(C)c1C(=O)O)C2=O
> 100 µM

Look up TGI: COc1ccc(/C=c2\[nH]c3nc(=O)c(N4CCCCC4)c(N)n3c2=O)cc1
> 100 µM

Look up TGI: COc1ccc(-n2c(N)c(C#N)c(C#N)c2-c2ccco2)cc1
> 100 µM

Look up TGI: O=C1CC(C2(O)C(=O)Nc3ccc([N+](=O)[O-])cc32)c2ccccc21 (configuration not stated)
> 100 µM

Look up TGI: Cc1nc2ccc(Cl)cc2c2c1CCO2
> 100 µM

----------
What TGI was measured for each of the following?
System: SF-539 CNS
ASSAY_COMMENT: NCI tumour cell line growth inhibition, 48 h

Look up TGI: Nc1c(C(=O)c2cccc(C(O)CO)c2)cnn1-c1ccc(F)cc1 (stereo not drawn)
> 25 µM

Look up TGI: Cc1ccc(S(=O)(=O)OCCC2CN(C(=O)OCc3ccccc3)C(C)(C)O2)cc1 (stereo not drawn)
> 100 µM

Look up TGI: CC(C)(C)c1cc(OCc2nnc3sc(Cc4ccccc4)nn23)c(Cl)cc1OCc1nnc2sc(Cc3ccccc3)nn12
> 100 µM

Look up TGI: Cc1ccccc1-n1c(=S)[nH]c2c(sc(=O)n2-c2ccccc2C)c1=O
> 100 µM

Look up TGI: O=C(O)CSC1=NNC2(C(=O)N1)c1ccccc1-c1ccccc12
> 10 µM

Look up TGI: Oc1ccc(Cl)cc1-c1cc(-c2ccccc2)nc(=S)[nH]1
> 100 µM

Look up TGI: O=c1cc(N2CCOCC2)n2c(ccc3ccccc32)n1
> 100 µM

Look up TGI: O=C1CC(c2ccsc2)n2cccc21 (stereo not drawn)
> 100 µM

----------
What TGI was measured for each of the following?
System: ACHN renal
ASSAY_COMMENT: NCI tumour cell line growth inhibition, 48 h
Your answer is read as µM, so omit the unit and give the number.

Look up TGI: COc1cc2c3c(n(C)c(=O)c2cc1OC)-c1cc2c(cc1/C3=C\CCCCCBr)OCO2
41.7

Look up TGI: CCC1=C(C[C@H]2NCCc3cc(OC)c(OC)cc32)C[C@H]2c3cc(OC)c(OC)cc3CCN2C1
0.28

Look up TGI: COc1ccc2nc(C)cc(Sc3nc4ccccc4s3)c2c1
5.77

Look up TGI: S=C1C(=Nc2ccccc2)N(c2ccccc2)/C(=N\c2cccc[n+]2Cc2ccccc2)N1c1ccccc1
45

----------
What TGI was measured for each of the following?
Tested on: NCI-H23 lung
ASSAY_COMMENT: NCI tumour cell line growth inhibition, 48 h

Look up TGI: Cc1ccc(N=C/C=C(\Nc2ccc(C)cc2)c2ccc3ccccc3c2)cc1
3.9 µM

Look up TGI: O=c1[nH]nc(-c2ccccc2)c2[nH]c3c(c12)Cc1ccccc1-3
> 100 µM

Look up TGI: C=C(C)[C@@H]1CCc2c(O)c(O)c(=O)cc(C)c2C1
48.9 µM

Look up TGI: O=C(c1ccccc1)c1nnn(Cc2ccccc2Cn2nnc(C(=O)c3ccccc3)c2C(=O)c2ccccc2)c1C(=O)c1ccccc1
> 100 µM

Look up TGI: CCC1=C(C[C@H]2NCCc3cc(OC)c(OC)cc32)C[C@H]2c3cc(OC)c(OC)cc3CCN2C1
0.0532 µM

Look up TGI: Cn1c2ccc(Cl)cc2c2ccc3c(c21)C(=O)C=CC3=O
> 10 µM

Look up TGI: COc1ccc(-c2cc3ccccc3[nH]c2=O)cc1OC
> 100 µM

Look up TGI: COc1cc(F)c(F)cc1C(=O)c1cnc(NC2CCN(S(C)(=O)=O)CC2)nc1N
> 18 µM

Look up TGI: C=CC1C(CC2OC(CO)C(O)C(O)C2O)OC=C2C(=O)OCCC21O (stereo not given)
61.9 µM

Look up TGI: O=c1c2ccccc2nc(N/N=C/c2ccc([N+](=O)[O-])cc2)n1-c1ccccc1
> 100 µM

Look up TGI: c1cc2cc3c4c5c(cc6ccc7cc8cc9c%10c8c8c7c6c5c8c5c%10c(c1C9N1CCOCCOCCOCCOCCOCC1)c2c45)C3 (stereo not given)
> 100 µM

Look up TGI: O=c1[nH]n(CCc2ccccc2CCl)c2ccc([N+](=O)[O-])cc12
> 100 µM

Look up TGI: Cc1c(OCc2cccc3ccccc23)ccc2c(=O)cc(SCCN3CCOCC3)oc12
> 100 µM

Look up TGI: O=C(Nc1ccc(-n2cc(-c3ccncc3)c(-c3ccc(O)c(Cl)c3)n2)cc1)c1ccc(Cl)c(C(F)(F)F)c1
> 50 µM

Look up TGI: O=Nc1c(-c2c(O)[nH]c3ccc(I)cc23)[nH]c2ccccc12
> 100 µM

Look up TGI: CC(C)C[C@H](NC(=O)Cn1cccc(CNC(=O)c2ccccc2)c1=O)B(O)O
> 100 µM

Look up TGI: CC(/C=C/C(=O)c1sc(C(N)=S)nc1C)=C\c1ccccc1
> 100 µM

Look up TGI: COc1cc(OC)c2c(=O)cc(-c3ccccc3OCc3ccccc3)oc2c1OC
23.4 µM

Look up TGI: CC1CCCC(C#N)(NOC2=NCCN2)C1 (stereo not given)
> 100 µM

Look up TGI: O=C1Nc2cccc(Cl)c2/C1=C\c1c(-c2ccccc2)nc2n1CCS2
88.7 µM

----------
System: BT-549 breast
ASSAY_COMMENT: NCI tumour cell line growth inhibition, 48 h
What TGI was measured for each of the following?

Look up TGI: CC(c1ccccc1)n1cncc1C(=O)NN1CCN(C)CC1 (stereo unspecified)
> 10 µM

Look up TGI: Cc1nc2ccc(Cl)cc2c2c1CCO2
> 100 µM

Look up TGI: COc1cccc(NC(=O)CC(=O)n2nc(-c3ccccc3)c(N=Nc3ccc(Cl)cc3)c2-c2ccccc2)c1
58.6 µM

Look up TGI: C/C(=C\Cc1ccc(F)cc1)CCCCCC/C(C)=C/Cc1ccc(F)cc1
79 µM

Look up TGI: O=C1C(N2CCN(CCOCCO)CC2)=C(Cl)C(=O)c2ncccc21
8.33 µM

Look up TGI: O=Nc1c(-c2c(O)[nH]c3ccc(I)cc23)[nH]c2ccccc12
> 59.3 µM

Look up TGI: CCOC(=O)c1c(-c2ccccc2)[n+](=O)c2cc(F)c(F)cc2n1[O-]
3.26 µM

Look up TGI: Cc1cc(=O)[nH]c(N/N=C/c2ccccc2O)n1
> 100 µM

Look up TGI: O=C1C=CC(=O)c2c1ccc1c3ccccc3n(Cc3ccccc3)c21
43.9 µM

Look up TGI: Cc1c(OCc2cccc3ccccc23)ccc2c(=O)cc(SCCN3CCOCC3)oc12
> 100 µM

Look up TGI: COc1cccc(C(C#N)NNC(=O)c2c(Cl)c(Cl)c(Cl)c(Cl)c2-c2nc3ccc(C(=O)c4ccccc4)cc3[nH]2)c1O (stereo unspecified)
> 100 µM

Look up TGI: COc1cc(Cl)c(CC(=O)c2c[nH]c3ccccc23)cc1OC
> 100 µM

Look up TGI: [N-]=[N+]=Nc1nc2ccccc2c(N=[N+]=[N-])c1Cl
89.6 µM

Look up TGI: CN(C)CCN1C(=O)c2cccc3c(/C=C/CN4C(=O)c5cccc6cccc(c56)C4=O)ccc(c23)C1=O
> 100 µM

Look up TGI: COc1cc(S(=O)(=O)Nc2ccc(-c3csc(N4C(=O)C(Cl)C4c4ccccc4O)n3)cc2)ccc1Cl (stereo unspecified)
> 100 µM

Look up TGI: NC(N)=NC(N)=Nc1ccc(C(=O)O)cc1
> 100 µM

Look up TGI: O=C1CS/C(=N/S(=O)(=O)c2ccc(N3N=C4c5ccccc5CC4C3c3cccs3)cc2)N1C(=O)c1ccccc1 (stereo unspecified)
> 100 µM

Look up TGI: Nc1nc(Cl)nc2c1ncn2C1OC(CO)C(O)C1F (stereo unspecified)
> 37.6 µM

Look up TGI: COc1ccc2c(c1O)[C@@]13CCCC=C1[C@@H](C2)[N+](C)(C)CC3
> 100 µM

Look up TGI: O=C(O)Cn1c2c(c3c1-c1ccccc1C3=O)C(=O)CCC2
> 100 µM

Look up TGI: CCOC(=O)C1CCC(=O)N1C(=O)c1cccc(Cl)c1 (stereo unspecified)
> 100 µM
